The following molecules are listed with their measured pIC50 values.
Target: UniProt Q7ZJM1
Assay: Inhibition of HIV-1 integrase enzyme at 3`- processing stage of DNA integration
pIC50: −log10 of the molar value.

O=C(NN1C(=O)C(Cl)C1c1ccc(O)cc1)c1ccccc1O (stereo not given) : < 3.52
CC1=NN(C(=O)c2ccc(Cl)cc2)C(=O)/C1=C/c1ccc(O)cc1 : < 3.53
O=C(NNC(=O)c1cccc2ccccc12)c1ccc(Cl)c(Cl)c1 : < 4.00

Answer with the recorded pIC50 for the molecule listed here: COc1cc(/C=C2/C(=O)N(C(=O)c3ccc(Cl)cc3)N=C2C)cc(OC)c1OC < 3.62

Answer with the recorded pIC50 for the molecule listed here: O=C(NN1C(=O)C(Cl)C1c1c(O)ccc2ccccc12)c1ccccc1O (stereo not given) 3.90

---

Tested on: CCRF-CEM
Experiment: Effective concentration was evaluated on HIV-1 infected CEM cells. (NR-not reached due to cytotoxicity.)
Type: functional, cell-based
Quantity measured: EC50

CC1=NN(C(=O)c2ccccc2O)C(=O)/C1=C/c1ccc([N+](=O)[O-])cc1 : Not reached
CC1=NN(C(=O)c2ccccc2O)C(=O)/C1=C/c1ccco1 : Not reached
O=C(NN1C(=O)C(Cl)C1c1ccc([N+](=O)[O-])cc1)c1ccccc1O (stereo not given) : Not reached
COc1cc(C2C(Cl)C(=O)N2NC(=O)c2ccccc2O)cc(OC)c1OC (stereo not given) : Not reached

Answer with the recorded EC50 for the compound listed here: CC1=NN(C(=O)c2ccccc2O)C(=O)/C1=C/c1ccccc1O Not reached

---

Target: Human immunodeficiency virus type 1 integrase (Human immunodeficiency virus 1, UniProt Q7ZJM1)
Sequence (Q7ZJM1 whole entry): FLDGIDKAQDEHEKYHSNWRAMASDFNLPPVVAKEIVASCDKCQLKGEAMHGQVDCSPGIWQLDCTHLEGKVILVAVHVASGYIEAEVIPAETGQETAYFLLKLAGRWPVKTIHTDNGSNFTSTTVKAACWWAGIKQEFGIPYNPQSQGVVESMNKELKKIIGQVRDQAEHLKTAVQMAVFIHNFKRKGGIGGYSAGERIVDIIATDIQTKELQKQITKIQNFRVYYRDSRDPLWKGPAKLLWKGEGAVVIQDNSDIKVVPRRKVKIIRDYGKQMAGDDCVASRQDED
Assay: Inhibitory concentration was evaluated as 50% inhibition of HIV-1 integrase enzyme at 3`- processing stage of DNA integration in experiment II
pIC50: −log10 of the molar value.
Quantity measured: pIC50

Would you please look over these solved cases?
COc1ccc(C2C(Cl)C(=O)N2NC(=O)c2ccccc2O)cc1OC (stereo unspecified) : 3.96
O=C(NN1C(=O)C(Cl)C1c1cccc(Cl)c1)c1ccccc1O (stereo unspecified) : 3.69
O=C(NN1C(=O)C(Cl)C1c1cccc(O)c1)c1ccccc1O (stereo unspecified) : 3.65
O=C(NN1C(=O)C(Cl)C1c1ccccc1Cl)c1ccccc1O (stereo unspecified) : 3.61

(P) O=C(NN1C(=O)C(Cl)C1c1ccc([N+](=O)[O-])cc1)c1ccccc1O (stereo unspecified)
(Q) COc1cc(C2C(Cl)C(=O)N2NC(=O)c2ccccc2O)cc(OC)c1OC (stereo unspecified)
Which is greater in pIC50, the first item P or the second item Q ? // output: label of the selected item Q
(Q: 4.12, P: 3.77)

---

Biological target: Human immunodeficiency virus type 1 integrase (Human immunodeficiency virus 1, UniProt Q7ZJM1)
Test: Inhibitory concentration was evaluated as 50% inhibition of HIV-1 integrase enzyme at strand transfer stage of DNA integration in experiment II
Quantity measured: IC50 (µM)

O=C(NN1C(=O)C(Cl)C1c1ccc([N+](=O)[O-])cc1)c1ccccc1O (configuration not stated) : 83
O=C(NN1C(=O)C(Cl)C1c1cccc(O)c1)c1ccccc1O (configuration not stated) : 99

---

Target: Human immunodeficiency virus type 1 integrase (Human immunodeficiency virus 1, UniProt Q7ZJM1)
Assay: Inhibitory concentration as 50% inhibition of HIV-1 integrase enzyme at strand transfer stage of DNA integration.
Quantity measured: IC50

COc1cc(/C=C2/C(=O)N(C(=O)c3ccccc3O)N=C2C)cc(OC)c1OC : 2 µM
CCOc1ccccc1C(=O)NNC(=O)c1ccccc1OCC : > 100 µM
COc1cc(/C=C2/C(=O)N(C(=O)c3ccc(Cl)cc3)N=C2C)cc(OC)c1OC : > 240 µM
COc1cc(C(=O)NNC(=O)c2ccc(Cl)cc2)cc(OC)c1OC : > 100 µM

Answer with the recorded IC50 for the compound listed here: COc1ccc(C2C(Cl)C(=O)N2NC(=O)c2ccccc2O)cc1 (stereo unspecified) 167 µM

Answer with the recorded IC50 for the compound listed here: CC1=NN(C(=O)c2ccc(Cl)cc2)C(=O)/C1=C/c1cccc(O)c1 > 293 µM

Answer with the recorded IC50 for the compound listed here: O=C(NNC(=O)c1ccc(Cl)cc1Cl)c1ccc2ccccc2c1 > 100 µM

Answer with the recorded IC50 for the compound listed here: CC1=NN(C(=O)c2ccccc2O)C(=O)/C1=C/c1ccc([N+](=O)[O-])cc1 0.6 µM

Answer with the recorded IC50 for the compound listed here: O=C(NNC(=O)c1ccccc1F)c1ccc2ccccc2c1 > 100 µM

Answer with the recorded IC50 for the compound listed here: O=C(NN1C(=O)C(Cl)C1c1cccc(Cl)c1)c1ccccc1O (stereo unspecified) 125 µM

Answer with the recorded IC50 for the compound listed here: O=C(NNC(=O)c1cccc2ccccc12)c1ccc(Cl)c(Cl)c1 > 100 µM

Data origin, for the record: ChEMBL document CHEMBL1131060
